B1: TRIM43 (parent)
chain: NRFRVEISFHFEVTNHNIRLFEDV

Variants of: B1
assay_remarks: protein stability index of a GFP-peptide fusion (GPS, HEK-293T) (PSI 1-6); higher = more stable;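 further: lentivirally expressed fusions sorted by FACS into six bins by GFP to DsRed ratio, PSI derived from sequencing read proportions per bin multiplied by bin number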
condition_description: c terminus: a fixed tail appended
Reported protein stability index values are given for each entry in this list.
outcome_measure: protein stability index

INSERT INTO results (alteration, outcome_measure, result_number) VALUES
  ('D23K', 'protein stability index', 1.95),
  ('R4K', 'protein stability index', 2.96),
  ('E6G', 'protein stability index', 2.02),
  ('E22D', 'protein stability index', 2.4),
  ('H16L', 'protein stability index', 1.82),
  ('E6P', 'protein stability index', 2.27),
  ('H16C', 'protein stability index', 3.06),
  ('F11D', 'protein stability index', 1.27),
  ('N17Q', 'protein stability index', 3.45),
  ('H16V', 'protein stability index', 1.07),
  ('V24K', 'protein stability index', 2.85),
  ('I7K', 'protein stability index', 2.12),
  ('L20F', 'protein stability index', 3.05),
  ('R4L', 'protein stability index', 2.88),
  ('T14L', 'protein stability index', 2.29),
  ('V5Q', 'protein stability index', 1.79),
  ('N17I', 'protein stability index', 1.37),
  ('T14Y', 'protein stability index', 3.83),
  ('F21Y', 'protein stability index', 3.98),
  ('N15W', 'protein stability index', 3.34),
  ('V13D', 'protein stability index', 1.93),
  ('E6H', 'protein stability index', 4.48),
  ('E12I', 'protein stability index', 1.68),
  ('R2V', 'protein stability index', 1.92),
  ('R4N', 'protein stability index', 2.75),
  ('N15G', 'protein stability index', 2.28),
  ('F9A', 'protein stability index', 2.87),
  ('F3T', 'protein stability index', 2.7),
  ('L20V', 'protein stability index', 4.23),
  ('I7T', 'protein stability index', 1.68),
  ('I18V', 'protein stability index', 2.97),
  ('F11S', 'protein stability index', 2.74);
